assay: Displacement of [3H]NTI from delta opioid receptor in guinea pig forebrain; parameters: species or system Cavia porcellus
measure name: Ki (nM)

CCC/C=C/c1cc2c(n1C)[C@@H]1Oc3c(O)ccc4c3[C@@]13CCN(CC1CC1)[C@H](C4)[C@]3(O)C2 = 6.58
Cn1c(/C=C/C(=O)c2ccccc2)cc2c1[C@@H]1Oc3c(O)ccc4c3[C@@]13CCN(CC1CC1)[C@H](C4)[C@]3(O)C2 = 3.74
Cn1c(CCC(=O)CCc2ccccc2)cc2c1[C@@H]1Oc3c(O)ccc4c3[C@@]13CCN(CC1CC1)[C@H](C4)[C@]3(O)C2 = 1.59
Cc1occc1C(=O)/C=C/c1cc2c(n1C)[C@@H]1Oc3c(O)ccc4c3[C@@]13CCN(CC1CC1)[C@H](C4)[C@]3(O)C2 = 1.47
CCCCCC(=O)/C=C/c1cc2c(n1C)[C@@H]1Oc3c(O)ccc4c3[C@@]13CCN(CC1CC1)[C@H](C4)[C@]3(O)C2 = 3.55
Cn1c(/C=C/C(=O)Cc2ccccc2)cc2c1[C@@H]1Oc3c(O)ccc4c3[C@@]13CCN(CC1CC1)[C@H](C4)[C@]3(O)C2 = 2.08
Cn1c(/C=C/C(=O)CCc2ccccc2)cc2c1[C@@H]1Oc3c(O)ccc4c3[C@@]13CCN(CC1CC1)[C@H](C4)[C@]3(O)C2 = 1.73

// provenance: ChEMBL document CHEMBL1221313
